# Assay info: ovarian cancer cell viability with rucaparib, profiling panel, oncology-focused library, rucaparib conditional (AID 1508598)
# Protocol conditions: patient-derived ovarian cancer cells, CellTiter-Glo viability, 144 h; at 0.000305 µM; OCI-C5x cells; with rucaparib 10 µM; 100% = cells with rucaparib alone
Calls of active or inactive are those of the source.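 How the source made its calls: active means normalized viability below 100% at a tested concentration; inactive means the rest.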
Returns: one label drawn from 1.0 for active, 0.0 for inactive

Compound	Assigned category
Cc1c(N)nc([C@H](CC(N)=O)NC[C@@H](N)C(N)=O)nc1C(=O)N[C@H](C(=O)N[C@@H](C)[C@H](O)[C@@H](C)C(=O)N[C@@H](C(=O)NCCc1nc(-c2nc(C(=O)NCCC[S+](C)C)cs2)cs1)[C@@H](C)O)C(O[C@H]1O[C@H](CO)[C@H](O)[C@@H](O)[C@H]1O[C@H]1O[C@H](CO)[C@@H](O)[C@H](OC(N)=O)[C@@H]1O)c1cnc[nH]1 (some centres undefined)	0.0
C/C(=C\c1csc(C)n1)[C@H]1C[C@@H]2O[C@@H]2CCC[C@H](C)[C@H](O)[C@@H](C)C(=O)C(C)(C)[C@H](O)CC(=O)O1	1.0
Cn1cc(C2=C(c3cn(C4CCN(Cc5ccccn5)CC4)c4ccccc34)C(=O)NC2=O)c2ccccc21	0.0

Proceed to the following item.
Field: outcome | Entry: Cn1c(CCCC(=O)O)nc2cc(N(CCCl)CCCl)ccc21 0.0

---

# Assay info: fluorescence interference in NS3h assay format, artefact control for HCV NS3 helicase inhibitor project, biochemical, NIH Clinical Collection (AID 743272);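 further: HCV NS3 helicase with a Cy5 labelled single stranded DNA probe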
# Protocol conditions: fluorescence interference counterscreen, stronger effect = lower value
Measure: fluorescence ratio
Answers are plain numbers.

Could you report fluorescence ratio for every entry in the following list?
1. CC(C)(O)[C@@H]1[C@H]2OC(=O)[C@@H]1[C@]1(O)C[C@H]3O[C@]34C(=O)O[C@H]2[C@]14C (tested in a mixture with another compound)
2. CCCCCCCCCOc1ccc2[nH]cc(CCN)c2c1
3. C=C1C[C@@H]2[C@H](CC[C@]3(C)C(=O)CC[C@@H]23)[C@@]2(C)C=CC(=O)C=C12
4. C[C@]12CCC(=O)C=C1CC[C@@H]1[C@@H]2CC[C@@]2(C)[C@H]1CC[C@]2(C)O
5. CCCCC/C=C\C/C=C\C/C=C\C/C=C\CCCC(=O)Nc1ccc(O)cc1
6. NCCc1ccccn1

1. 0.9
2. 0.61
3. 1.05
4. 0.97
5. 0.88
6. 1

Could you report fluorescence ratio for every entry in the following list?
1. C[N+]1(C)CCN(c2ccccc2)CC1
2. CCC(COC(=O)c1cc(OC)c(OC)c(OC)c1)(c1ccccc1)N(C)C (stereo not drawn)
3. FC(F)(F)c1cccc(N2CCNCC2)c1

1. 1.01
2. 0.98
3. 0.93

Could you report fluorescence ratio for every entry in the following list?
1. CC[C@@H](C(N)=O)N1CCCC1=O
2. C[C@]12CCC(=O)C[C@@H]1CC[C@@H]1[C@@H]2CC[C@@]2(C)[C@H]1CC[C@]2(C)O
3. COc1ccc2c(c1)C13CCCC[C@@H]1C(C2)N(C)CC3 (stereo partly drawn)
4. Cc1nnc2n1-c1ccc(Cl)cc1C(c1ccccc1)=NC2
5. NC1=NC(=O)C(c2ccccc2)O1 (stereo not drawn)
6. COc1ccc(C(CN(C)C)C2(O)CCCCC2)cc1 (stereo not drawn)

1. 1.02
2. 0.92
3. 0.92
4. 0.99
5. 0.93
6. 0.93

---

For each entry below, report its viability value.
# Assay info: ovarian cancer cell viability with rucaparib, profiling panel, oncology-focused library, rucaparib conditional (AID 1508598)
# Protocol conditions: patient-derived ovarian cancer cells, CellTiter-Glo viability, 144 h; at 0.00488 µM; OCI-P5x cells; without rucaparib; stronger effect = lower value
Numbers only, in %.

These recorded examples may help you get a feel for the data.
Compound	viability (%)
C/C(=C\c1csc(C)n1)[C@H]1C[C@@H]2O[C@]2(C)CCC[C@H](C)[C@H](O)[C@@H](C)C(=O)C(C)(C)[C@H](O)CC(=O)O1	17.6
CC(C)[C@@]12O[C@@H]1[C@@H]1O[C@]13[C@]1(O[C@@H]1C[C@@H]1C4=C(CC[C@@]13C)C(=O)OC4)[C@@H]2O	8.9
Cc1c(N)nc([C@H](CC(N)=O)NC[C@@H](N)C(N)=O)nc1C(=O)N[C@H](C(=O)N[C@@H](C)[C@H](O)[C@@H](C)C(=O)N[C@@H](C(=O)NCCc1nc(-c2nc(C(=O)NCCC[S+](C)C)cs2)cs1)[C@@H](C)O)C(O[C@H]1O[C@H](CO)[C@H](O)[C@@H](O)[C@H]1O[C@H]1O[C@H](CO)[C@@H](O)[C@H](OC(N)=O)[C@@H]1O)c1cnc[nH]1 (stereo not given in full)	94.3
Cn1c(CCCC(=O)O)nc2cc(N(CCCl)CCCl)ccc21	109

Now consider the entry below.
If you can, please state the reported viability value of C/C(=C\c1csc(C)n1)[C@H]1C[C@@H]2O[C@@H]2CCC[C@H](C)[C@H](O)[C@@H](C)C(=O)C(C)(C)[C@H](O)CC(=O)O1 . 16.8

---

# Assay info: modifiers of HSF1 nuclear foci, imaging, Selleck Cancer Library (AID 1347162)
# Protocol conditions: human cells, at 10 µM; measured here: cell number
Measure: cell count
Numbers only.

Compound	Measure	Recorded measurement
Cc1ccccc1-n1c(Cn2cnc3c(N)ncnc32)nc2cccc(C)c2c1=O	cell count	6650

Could you report cell count for every entry in the following list?
1. O=C(O)c1nn(Cc2ccc(Cl)cc2Cl)c2ccccc12
2. CC1=C2C[C@H]3[C@@H](CC=C4C[C@@H](O)CC[C@@]43C)[C@@H]2CC[C@]12O[C@@H]1C[C@H](C)CN[C@H]1[C@H]2C
3. CN(C)CCN(C)CCc1ccc(Cl)c(Cl)c1
4. CC(O)(CS(=O)(=O)c1ccc(F)cc1)C(=O)Nc1ccc(C#N)c(C(F)(F)F)c1 (configuration not stated)
5. N[C@@H](Cc1ccc(N(CCCl)CCCl)cc1)C(=O)O
6. CCC1(c2ccc(N)cc2)CCC(=O)NC1=O (configuration not stated)

1. 6570
2. 7300
3. 7160
4. 7580
5. 7340
6. 7280

---

# Assay info: growth inhibition of DIPG glioma cells, dose response, cell-based, SU-DIPG-XIII, MIPE5.0, CellTiter-Glo, qHTS (AID 1347064);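 on AC50: cells exposed to compound for 48 hours before the viability read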
# Protocol conditions: SU-DIPG-XIII viability, CellTiter-Glo ATP luminescence
Inconclusive results are not listed. Calls of active or inactive are those of the source. The limit is not given here; nearly all actives have AC50 up to about 23 µM.
Returns: one label drawn from active, inactive

Compound	Assigned category
O=C(O)CNC(=O)C1C(=O)N(C2CCCCC2)C(=O)N(C2CCCCC2)C1=O	inactive
CN1CCN(c2ccc([N+](=O)[O-])c3no[n+]([O-])c23)CC1	active
Cc1c(N)nc([C@H](CC(N)=O)NC[C@@H](N)C(N)=O)nc1C(=O)N[C@H](C(=O)N[C@@H](C)[C@H](O)[C@@H](C)C(=O)N[C@@H](C(=O)NCCc1nc(-c2nc(C(=O)NCCC[S+](C)C)cs2)cs1)[C@@H](C)O)C(O[C@H]1O[C@H](CO)[C@H](O)[C@@H](O)[C@H]1O[C@H]1O[C@H](CO)[C@@H](O)[C@H](OC(N)=O)[C@@H]1O)c1cnc[nH]1 (stereo not given in full)	inactive
CO[C@H]1CCC(O[C@H]2C[C@H]([C@]3(C)CC[C@]4(C[C@H](O)[C@@H](C)[C@@H]([C@@H](C)/C=C(\C)C(=O)[C@H](C)C[C@H](C)C(=O)O)O4)O3)O[C@]3(O[C@@H]([C@H]4O[C@@](O)(CO)[C@H](C)C[C@@H]4C)C[C@@H]3C)[C@@H]2C)O[C@@H]1C (stereo not given in full)	active

Field: outcome | Entry: O=C(O)CNC(=O)c1c(O)c2ccccc2n(Cc2ccccc2)c1=O inactive

Field: outcome | Entry: C/C=C(/C)C(=O)O[C@H]1C(C)=C2[C@H]([C@@H]1OC(=O)CCCCCCC)[C@@](C)(OC(C)=O)C[C@H](OC(=O)CCC)[C@@]1(O)[C@H]2OC(=O)[C@@]1(C)O active

Field: outcome | Entry: CC(C)(O)C(=O)Nc1ccc([N+](=O)[O-])c(C(F)(F)F)c1 inactive

---

For each entry below, report its period change value.
# Assay info: circadian clock period modulators, cell-based, LOPAC library, luminescence reporter (AID 2774);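 further: values are relative to mean of DMSO wells on each plate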
# Protocol conditions: circadian reporter cells, at 7 µM, actives lie on both sides
Calls of active or inactive are those of the source. The rule behind the calls is not given here.

These recorded examples may help you get a feel for the data.
Compound	Measure	Recorded measurement
CNc1ccc2oc(C[C@H]3O[C@@]4(CC[C@H]3C)O[C@H]([C@H](C)C(=O)c3ccc[nH]3)[C@H](C)C[C@H]4C)nc2c1C(=O)O	period change	-0.125 h (inactive)
C[Se]C[C@H](N)C(=O)O	period change	-0.13 h (inactive)
NCC(O)c1cc(O)c(O)cc1F (configuration not stated)	period change	-0.105 h (inactive)
OCc1cnc[nH]1	period change	0.065 h (inactive)

Could you report period change for every entry in the following list?
1. COC(=O)N1CCN(C(=O)Cc2ccc(Cl)c(Cl)c2)C(CN2CCCC2)C1 (configuration not stated)
2. O=C(O)CCCc1ccc(N(CCCl)CCCl)cc1
3. CCCN1CCC[C@H](c2cccc(O)c2)C1
4. NCC(CP(=O)(O)O)c1ccc(Cl)cc1 (configuration not stated)
5. C[C@]12N[C@H](Cc3ccccc31)c1ccccc12

1: -0.045 h (inactive); 2: -0.09 h (inactive); 3: -0.035 h (inactive); 4: 0.02 h (inactive); 5: 0.055 h (inactive)

Could you report period change for every entry in the following list?
1. C/C(O)=C(\C#N)C(=O)Nc1cc(Br)ccc1Br
2. Cc1cccc(C)c1NC1=NCCCS1
3. C[C@@H]1O[C@@H](O[C@H]2C[C@@H](O)[C@]3(CO)[C@@H]4C(CC[C@]3(O)C2)[C@@]2(O)CC[C@H](C3COC(=O)C3)[C@@]2(C)C[C@H]4O)[C@H](O)[C@H](O)[C@H]1O (some centres not stated)
4. COc1ccc(C(=O)N2CCCC2=O)cc1
5. CC(=O)OCC1=C(C(=O)[O-])N2C(=O)[C@@H](NC(=O)CCC[C@@H](N)C(=O)[O-])[C@H]2SC1.[Zn+2]
6. NNC(=O)c1ccc(O)cc1

1. 0.265 h (inactive)
2. -0.19 h (inactive)
3. -0.47 h (inactive)
4. -0.01 h (inactive)
5. -0.01 h (inactive)
6. 0.115 h (inactive)
